System: RPMI-8226 leukemia
Experiment: NCI-60 one-dose screen, 48 h (100 = growth as untreated, 0 = no growth, -100 = all killed)
Conditions: 10 µM unless noted
Compounds without any hit were thinned out: in the full panel of roughly 83,000, 20% have a hit.
endpoint: growth (%)
# value in %; strip the unit string

molecule: C/C(=N\NC(N)=S)c1nnn(-c2ccc([N+](=O)[O-])cc2)c1C
growth / %: 103

molecule: O=C(CN1CCN(c2cc(=O)[nH]c3ccc(F)cc23)CC1)N(c1ccccc1)c1ccccc1
growth / %: 115

molecule: Cc1ncn(-c2ccc(/C=N/Nc3ccnc4cc(Cl)ccc34)cc2)c1C
growth / %: -27.2

molecule: COc1ccc(C(C)=C(c2ccc(OCCN(C)C)cc2)c2ccc(OCCN(C)C)cc2)cc1
growth / %: -48.5

molecule: COc1cc(-c2nc(-c3ccccc3)[nH]c2-c2ccnc(NCCCNS(=O)(=O)c3cccc(F)c3)n2)ccc1F
growth / %: 62.4

# molecule "Cc1ccc(NC(=O)/C=C/c2ccc(OCCCOc3ccc4c(C)cc(=O)oc4c3)cc2)cc1" ; its growth = 90.1

# molecule Cc1[nH]c(C(=O)Nc2ccc(C(N)=O)cc2N2CCOC(C)C2)c(Cl)c1Cl (centres undefined) ; its growth = 107
